test: Increase in weight by moisture absorption; type: physicochemical; conditions: sample stored 25° C., 75% open air, 7 days
For each entry below, report its increase in weight by moisture absorption value.
# output: number + unit

Which increase in weight by moisture absorption value is on record for OC[C@@H](O)[C@@H](O)CO ?
0.03%

Name the reported increase in weight by moisture absorption value associated with the compound OC[C@H]1O[C@H](O[C@H]2O[C@H](CO)[C@@H](O)[C@H](O)[C@H]2O)[C@H](O)[C@@H](O)[C@@H]1O
0.99%

Requested read-out: increase in weight by moisture absorption. Entry: OC[C@H]1O[C@H](O[C@H]2[C@H](O)[C@@H](O)[C@H](O)O[C@@H]2CO)[C@H](O)[C@@H](O)[C@@H]1O
0.06%

// returns reported increase in weight by moisture absorption for input OC[C@@H](O)[C@H](O)[C@@H](O)CO
0.05%

----------
Kindly state solubility thermodynamic for each of the entries shown.
test: physchem; conditions: water

Requested read-out: solubility thermodynamic. Entry: OC[C@@H](O)[C@@H](O)CO
450 mg/mL

Which value of solubility thermodynamic has been reported for OC[C@H]1O[C@H](O[C@H]2O[C@H](CO)[C@@H](O)[C@H](O)[C@H]2O)[C@H](O)[C@@H](O)[C@@H]1O in the records?
500 mg/mL

Please look up its solubility thermodynamic: OC[C@@H](O)[C@@H](O)[C@H](O)[C@H](O)CO [D-Mannitol, reference compound]
240 mg/mL

Endpoint output: solubility thermodynamic of OC[C@@H](O)[C@H](O)[C@@H](O)CO . Value?
740 mg/mL

Value lookup for solubility thermodynamic; key = OC[C@H]1O[C@@](CO)(O[C@H]2O[C@H](CO)[C@@H](O)[C@H](O)[C@H]2O)[C@@H](O)[C@@H]1O [Sucrose, reference compound]
780 mg/mL

----------
assay: Measurement of viscosity of a saturated aqueous solution; assay type: physicochemical; details: B-type viscometer
measured_attribute: Viscosity (37° C.) (mPa · s)
# output: bare number, implied unit mPa · s

Any idea what its Viscosity (37° C.) is? The compound is OC[C@@H](O)[C@@H](O[C@@H]1O[C@H](CO)[C@H](O)[C@H](O)[C@H]1O)[C@H](O)[C@@H](O)CO [Hydrogenated lactose, reference compound]
218

Param item = OC[C@H]1O[C@H](O[C@H]2O[C@H](CO)[C@@H](O)[C@H](O)[C@H]2O)[C@H](O)[C@@H](O)[C@@H]1O [Trehalose] ; retrieve measured Viscosity (37° C.).
11

What value of measured Viscosity (37° C.) is listed for OC[C@H]1O[C@@](CO)(O[C@H]2O[C@H](CO)[C@@H](O)[C@H](O)[C@H]2O)[C@@H](O)[C@@H]1O [Sucrose, reference compound] ?
1120

# get_value(readout='Viscosity (37° C.)', item= OC[C@H]1O[C@H](O[C@H]2[C@H](O)[C@@H](O)[C@H](O)O[C@@H]2CO)[C@H](O)[C@@H](O)[C@@H]1O [Maltose] )
38

Give the measured Viscosity (37° C.) of OC[C@@H](O)[C@@H](O)[C@H](O)[C@H](O)CO [D-Mannitol, reference compound] .
1.6

# lookup: Viscosity (37° C.) of CC(=O)[O-].[Na+] [Sodium acetate]
5.2
